Tested on: A549 NSCLC
Assay: NCI tumour cell line growth inhibition, 48 h
measuredMetric: GI50

Some solved entries appear below for comparison.
### Prompt Need GI50 of "Cc1cccc(/C=N/NC(=S)N2CCCC2)n1" , thanks.
### Response 2.5 µM

### Prompt What would you report for "CN1CCN(C(=O)C(C)(C)c2ccc(C(=O)Nc3cn4cc(-c5ccncc5)ccc4n3)cc2)CC1" ?
### Response 0.214 µM

### Prompt Consider next the molecule "Cc1cc([N+](=O)[O-])c(NS(=O)(=O)c2cccc(C(=O)O)c2)cc1-c1cccnc1" in the same way.
### Response > 100 µM

### Prompt Would you mind doing Nc1ncnc2c1N=C(c1ccc3c(c1)OCO3)CC(c1ccc([N+](=O)[O-])cc1)N2 (stereo not drawn) as well?
### Response 69.7 µM

### Prompt Entry to check: "Cc1[nH]c2ccccc2c1CCCO"
### Response > 100 µM

Next:
### Prompt Using the record for "Cc1cc(NCCCN(C)C)c2ccc3c(ccc4c(NCCCN(C)C)cc(C)nc43)c2n1" , report its GI50.
### Response 0.0643 µM

----------
System: CAKI-1 renal
Assay: NCI tumour cell line growth inhibition, 48 h
measuredMetric: TGI (µM)
Entry rule: numbers only, all in µM.

### Prompt Entry O=S(=O)(c1ccc(NC2=NC(c3ccc(O)cc3)(c3ccccc3O)c3ccccc32)cc1)c1ccc(NC2=NC(c3ccc(O)cc3)(c3ccccc3O)c3ccccc32)cc1 (stereo not given) : reported TGI = ?
### Response 59.4

We now examine a further compound.
### Prompt Using the record for "C=C(C(N)=O)c1ccc([N+](=O)[O-])o1" , report its TGI.
### Response 7.27

----------
System: HOP-92 NSCLC
Experiment: NCI tumour cell line growth inhibition, 48 h
Measured TGI by item
Your answer should be a plain number; it is taken to be in µM.

// solved cases for TGI follow
### Prompt Give the reported TGI for "Cc1cc(F)ccc1S(=O)(=O)Nc1cc(-c2c(O)ccc3ccccc23)c(O)c2ccccc12" (system: HOP-92 NSCLC).
### Response 2.82

### Prompt Field entry: "CCNCCCn1c2c(c3ccc(Cl)cc3c1=O)C(=O)c1cc(OC)cnc1-2"
### Response 27.2

Then this compound:
### Prompt Give HOP-92 NSCLC TGI for "Cc1c(C(=O)Nc2ccccc2)sc2ncn(Cc3cccc(Cl)c3)c(=O)c12"
### Response 40.5

----------
Overview of recorded TGI for various compounds
Test system: OVCAR-5 ovarian
Test: NCI tumour cell line growth inhibition, 48 h
Return type: number; implicit unit µM.

Here is how some compounds turned out for TGI.
### Prompt Please report the recorded TGI for CC(C)(C)C(=O)OCC1C(=O)OCC1C(=O)N1Cc2cc3ccccc3nc2C1 (centres undefined) .
### Response 23.1

### Prompt Try the compound CC(=O)OCC1OC(SC2=N/C(=C\c3ccc(Br)s3)C(=O)N2CN2CCOCC2)C(OC(C)=O)C(OC(C)=O)C1OC(C)=O (centres undefined)
### Response 72.1

### Prompt // same read-out, input: "CCCCCCCC/C=C\CCCCCCC/C=C1\C[C@](/C=C/C(=O)OC)(CO)OC1=O"
### Response 19.5

### Prompt Query Cc1ccccc1OCC(O)CN1CCN(c2ccc(Cl)cc2)CC1 (centres undefined) next
### Response 34.5

// switching to the query compound
### Prompt Query (compound): CN(C)CCN1C(=O)c2c(c3c4ccccc4n4c3c3c2c2ccccc2n3C2CC(O)C(O)C4(C)O2)C1=O (centres undefined) ; field requested: TGI
### Response 27.6

----------
System: SN12C renal
Experiment: NCI tumour cell line growth inhibition, 48 h
measuredMetric: TGI

These recorded examples may help you get a feel for the data.
### Prompt Please give the measured TGI for this molecule: CC(C)(C)C(=O)OCC1C(=O)OCC1C(=O)N1Cc2cc3ccccc3nc2C1 (stereo not given)
### Response 16.8 µM

### Prompt Please do the same for "CCCCOC(=O)N1CCN(/[N+]([O-])=N/Oc2ccc([N+](=O)[O-])cc2[N+](=O)[O-])CC1" as well.
### Response 31.5 µM

### Prompt # iterate: "COc1ccc(N2C(=O)CC(=O)N(C(=O)COc3ccc(OCC(=O)N4C(=O)CC(=O)N(c5ccc(OC)cc5)C4=S)cc3)C2=S)cc1"
### Response > 100 µM

### Prompt What would you report for "COc1cc([C@@H]2c3cc4c(cc3[C@@H](c3c(O)cc(O)c5c3O[C@H](c3ccc(O)c(O)c3)[C@@H](O)C5)[C@H]3COC(=O)[C@H]23)OCO4)cc(OC)c1OC" ?
### Response > 100 µM

### Prompt Another molecule: COc1ccc(CC(N)c2ccc(OC)cc2)cc1 (stereo not given)
### Response > 100 µM

More entries:
### Prompt For O=C(c1ccc(Cl)cc1Cl)C1[C@H]2C(=O)N(c3ccc(Cc4ccc(N5C(=O)[C@@H]6ON(c7ccccc7)C(C(=O)c7ccc(Cl)cc7Cl)[C@@H]6C5=O)cc4)cc3)C(=O)[C@H]2ON1c1ccccc1 (stereo not given in full) , what is its reported TGI?
### Response > 50 µM

### Prompt Try the molecule "NS(=O)(=O)c1ccc(/C=C/c2ccc(F)cc2)cc1"
### Response > 100 µM

### Prompt Here is the next molecule: "Cc1cc([N+](=O)[O-])c(NS(=O)(=O)c2cccc(C(=O)O)c2)cc1-c1cccnc1"
### Response > 100 µM

### Prompt How about this molecule: N#CC1(C#N)NC(c2cccs2)C(C#N)(C#N)NC1c1cccs1 (stereo not given)
### Response > 100 µM

### Prompt What about this molecule? "CCOP(=O)(/C=C\n1cc(C)c(=O)[nH]c1=O)OCC"
### Response > 100 µM

### Prompt Subsequent entry: "C[C@H](OCc1ccccc1)C(=O)N1CCS(=O)(=O)N2CCC[C@@H]2C1=O"
### Response > 100 µM

### Prompt Param item: "CCOc1cc2c(C(=O)CC)c(O)ccc2o1"
### Response > 100 µM

### Prompt "ClCCCc1ccccc1C1=NCCc2ccccc21" , same question.
### Response > 100 µM

### Prompt Request: "C=C/C=C/NC(=O)OCc1ccccc1"
### Response > 100 µM

### Prompt Subsequent entry: "C/C(=N/NC(=S)N1CCCCC1)c1ccccc1O"
### Response > 31.6 µM

----------
Tested on: NCI-H23 lung
Experiment: NCI tumour cell line growth inhibition, 48 h; in the data active = GI50 below about 0.43 µM; inactive = the rest
Pick one and only one: YES for active, NO for inactive

### Prompt # lookup: test call for "CC1=C(c2cccc(O)c2)[C@H](c2ccc(OCCN3CC(CF)C3)cc2)Oc2ccc(O)cc21"
### Response NO

Further cases:
### Prompt Please indicate how the test categorized "C[C@H]1CC[C@@]2(NC1)O[C@H]1C[C@H]3[C@@H]4CC[C@H]5C[C@@H](O)CC[C@]5(C)[C@H]4CC[C@]3(C)[C@H]1[C@@H]2C" .
### Response NO

### Prompt Then this compound: "CCCCOC(=O)N1CCN(/[N+]([O-])=N/Oc2ccc([N+](=O)[O-])cc2[N+](=O)[O-])CC1"
### Response NO

----------
Measured TGI of individual entries
System: NCI-H226 lung
Test: NCI tumour cell line growth inhibition, 48 h

### Prompt Value lookup for TGI; key = CC(C)CCCC(C)[C@H]1CCC2[C@@H]3CCC4Cc5nc6c(nc5C[C@]4(C)C3CC[C@@]21C)CC1CC[C@@H]2C(CC[C@@]3(C)C2CC[C@@H]3C(C)CCCC(C)C)[C@@]1(C)C6 (some centres undefined)
### Response > 100 µM

### Prompt Next record, please: Cc1ccccc1OCC(O)CN1CCN(c2ccc(Cl)cc2)CC1 (centres undefined)
### Response 35.9 µM

### Prompt And what about the molecule OCC(O)C(O)C(O)C(O)c1nc2ccc(Cl)cc2[nH]1 (centres undefined) ?
### Response > 100 µM

### Prompt // same read-out, input: C[N+](C)(C)c1ccc(C(N)C(=O)O)cc1 (centres undefined)
### Response > 100 µM

### Prompt Proceed to "O=S(=O)(/C=C/c1ccc(F)cc1)Cc1ccc(CS(=O)(=O)/C=C/c2ccc(F)cc2)cc1"
### Response > 100 µM

### Prompt Also "Cc1cc2c(C(C)C)c(O)c(O)cc2c(O)c1-c1c(C)cc2c(C(C)C)c(O)c(O)cc2c1O" , if possible.
### Response 34.9 µM

### Prompt Can you check "Cc1ccc(S(=O)(=O)n2c3ccc(Br)cc3c3nc4ccccc4nc32)cc1" next?
### Response 0.879 µM

### Prompt Would you mind doing "O=C1Nc2ccc(Br)cc2C1=Nc1cccnc1" as well?
### Response > 100 µM

***
### Prompt Look at this molecule and give its reported TGI. "O=[N+]([O-])c1ccc(-n2nnc(C3=NCCN3)c2-c2ccccc2)cc1"
### Response > 100 µM
